- Experimental target: Adenylate cyclase type 1 (Homo sapiens)
- Sequence (Q08828 whole entry): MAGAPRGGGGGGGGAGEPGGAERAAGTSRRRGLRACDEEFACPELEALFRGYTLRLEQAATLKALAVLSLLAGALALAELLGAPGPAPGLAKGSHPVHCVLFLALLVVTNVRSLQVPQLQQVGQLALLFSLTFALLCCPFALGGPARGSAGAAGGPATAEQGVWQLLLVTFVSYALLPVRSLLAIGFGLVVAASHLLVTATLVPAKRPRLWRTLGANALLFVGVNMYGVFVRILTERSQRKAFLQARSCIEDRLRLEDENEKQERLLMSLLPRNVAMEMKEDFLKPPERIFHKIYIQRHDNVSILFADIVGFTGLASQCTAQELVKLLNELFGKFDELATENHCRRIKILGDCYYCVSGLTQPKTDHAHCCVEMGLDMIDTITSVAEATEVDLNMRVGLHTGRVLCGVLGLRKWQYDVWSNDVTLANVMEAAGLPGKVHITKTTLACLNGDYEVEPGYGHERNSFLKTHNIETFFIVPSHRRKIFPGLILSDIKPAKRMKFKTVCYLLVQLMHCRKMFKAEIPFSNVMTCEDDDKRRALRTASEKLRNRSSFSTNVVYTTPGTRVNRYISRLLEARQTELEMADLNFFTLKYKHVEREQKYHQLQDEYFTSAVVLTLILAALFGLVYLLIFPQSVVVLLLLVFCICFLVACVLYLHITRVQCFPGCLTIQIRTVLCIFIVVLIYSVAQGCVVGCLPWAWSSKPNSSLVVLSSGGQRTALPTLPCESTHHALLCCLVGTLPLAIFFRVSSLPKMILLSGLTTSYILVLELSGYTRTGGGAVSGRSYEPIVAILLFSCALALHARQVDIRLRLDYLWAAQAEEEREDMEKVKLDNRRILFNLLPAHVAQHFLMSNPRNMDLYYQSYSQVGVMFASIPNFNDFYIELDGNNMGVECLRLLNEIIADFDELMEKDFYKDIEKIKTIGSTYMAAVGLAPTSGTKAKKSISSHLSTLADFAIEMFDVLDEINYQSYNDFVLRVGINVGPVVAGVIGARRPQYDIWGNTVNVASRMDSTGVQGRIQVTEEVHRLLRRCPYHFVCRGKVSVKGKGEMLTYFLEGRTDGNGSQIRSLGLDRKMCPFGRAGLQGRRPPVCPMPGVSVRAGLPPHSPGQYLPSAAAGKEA
- Protocol details: Inhibition of [125 I]6-IHPP-forskolin binding to adenylate cyclase 1
pIC50: −log10 of the molar value.

Smiles structure: C=C[C@@]1(C)CC(=O)[C@]2(O)[C@@]3(C)[C@@H](O)CCC(C)(C)[C@@H]3[C@H](O)[C@H](OC(=O)NCCc3ccccn3)[C@@]2(C)O1
pIC50: > 6.82
--
Smiles structure: C=CCNC(=O)O[C@H]1[C@H]2C(C)(C)CC[C@H](O)[C@]2(C)[C@@]2(O)C(=O)C[C@](C)(C=C)O[C@]2(C)[C@H]1O
pIC50: < 6.82
--
Smiles structure: C=C[C@@]1(C)CC(=O)[C@]2(O)[C@@]3(C)[C@@H](O)CCC(C)(C)[C@@H]3[C@H](OC(=O)NCCc3ccccn3)[C@H](OC(C)=O)[C@@]2(C)O1
pIC50: > 6.82

----------
Form field: IC50 (one value per entry).
- Experimental target: Adenylate cyclase type 1 (Homo sapiens)
- Protocol details: Inhibition of [125 I]6-IHPP-forskolin binding to adenylate cyclase 1

Smiles structure: C=C[C@@]1(C)CC(=O)[C@]2(O)[C@@]3(C)[C@@H](O)CCC(C)(C)[C@@H]3[C@H](OC(=O)NCCc3ccccn3)[C@H](O)[C@@]2(C)O1
IC50: < 150 nM

Smiles structure: C=C[C@@]1(C)CC(=O)[C@]2(O)[C@@]3(C)[C@@H](O)CCC(C)(C)[C@@H]3[C@H](O)[C@H](OC(=O)NCCc3ccccc3)[C@@]2(C)O1
IC50: > 150 nM

Smiles structure: C=C[C@@]1(C)CC(=O)[C@]2(O)[C@@]3(C)[C@@H](O)CCC(C)(C)[C@@H]3[C@H](O)[C@H](OC(=O)NCCOC)[C@@]2(C)O1
IC50: > 150 nM

----------
- Experimental target: Adenylate cyclase type 1 (Homo sapiens)
- Protocol details: Inhibition of [125 I]6-IHPP-forskolin binding to adenylate cyclase 1
Form field: log10 IC50 (one value per entry).
Outcome measure: log10 IC50 (log10 of the value in nM)

Smiles structure: C=C[C@@]1(C)CC(=O)[C@]2(O)[C@@]3(C)[C@@H](O)CCC(C)(C)[C@@H]3[C@H](O)[C@H](OC(=O)NCCOC)[C@@]2(C)O1
log10 IC50: 2.24

Smiles structure: C=CCNC(=O)O[C@H]1[C@H]2C(C)(C)CC[C@H](O)[C@]2(C)[C@@]2(O)C(=O)C[C@](C)(C=C)O[C@]2(C)[C@H]1O
log10 IC50: 2.49

Smiles structure: C=C[C@@]1(C)CC(=O)[C@]2(O)[C@@]3(C)[C@@H](O)CCC(C)(C)[C@@H]3[C@H](OC(=O)NCCC)[C@H](OC(C)=O)[C@@]2(C)O1
log10 IC50: 1.88

Smiles structure: C=C[C@@]1(C)CC(=O)[C@]2(O)[C@@]3(C)[C@@H](O)CCC(C)(C)[C@@H]3[C@H](OC(=O)NCCN(C)C)[C@H](OC(C)=O)[C@@]2(C)O1
log10 IC50: 1.86

Smiles structure: C=C[C@@]1(C)CC(=O)[C@]2(O)[C@@]3(C)[C@@H](O)CCC(C)(C)[C@@H]3[C@H](O)[C@H](OC(=O)NCCC(=O)OCC)[C@@]2(C)O1
log10 IC50: 2.27

Smiles structure: C=C[C@@]1(C)CC(=O)[C@]2(O)[C@@]3(C)[C@@H](O)CCC(C)(C)[C@@H]3[C@H](O)[C@H](OC(=O)NCCc3ccccn3)[C@@]2(C)O1
log10 IC50: 2.16

Smiles structure: C=C[C@@]1(C)CC(=O)[C@]2(O)[C@@]3(C)[C@@H](O)CCC(C)(C)[C@@H]3[C@H](OC(=O)NCCO)[C@H](O)[C@@]2(C)O1
log10 IC50: 2.36

Smiles structure: C=C[C@@]1(C)CC(=O)[C@]2(O)[C@@]3(C)[C@@H](O)CCC(C)(C)[C@@H]3[C@H](OC(=O)NCCN)[C@H](O)[C@@]2(C)O1
log10 IC50: 2.28

Smiles structure: C=C[C@@]1(C)CC(=O)[C@]2(O)[C@@]3(C)[C@@H](O)CCC(C)(C)[C@@H]3[C@H](OC(=O)NCCOC)[C@H](O)[C@@]2(C)O1
log10 IC50: 2.50

Smiles structure: C=C[C@@]1(C)CC(=O)[C@]2(O)[C@@]3(C)[C@@H](O)CCC(C)(C)[C@@H]3[C@H](OC(=O)NCC3CCCCC3)[C@H](O)[C@@]2(C)O1
log10 IC50: 2.64

Smiles structure: C=C[C@@]1(C)CC(=O)[C@]2(O)[C@@]3(C)[C@@H](O)CCC(C)(C)[C@@H]3[C@H](OC(=O)NCCO)[C@H](OC(C)=O)[C@@]2(C)O1
log10 IC50: 2.15

Smiles structure: C=C[C@@]1(C)CC(=O)[C@]2(O)[C@@]3(C)[C@@H](O)CCC(C)(C)[C@@H]3[C@H](O)[C@H](OC(=O)NCC3CCCCC3)[C@@]2(C)O1
log10 IC50: 3.20

Smiles structure: C=C[C@@]1(C)CC(=O)[C@]2(O)[C@@]3(C)[C@@H](O)CCC(C)(C)[C@@H]3[C@H](OC(=O)NCCc3ccc(O)cc3)[C@H](O)[C@@]2(C)O1
log10 IC50: 2.37

Smiles structure: C=C[C@@]1(C)CC(=O)[C@]2(O)[C@@]3(C)[C@@H](O)CCC(C)(C)[C@@H]3[C@H](OC(=O)NCCc3ccccc3)[C@H](OC(C)=O)[C@@]2(C)O1
log10 IC50: 1.56

Smiles structure: C=C[C@@]1(C)CC(=O)[C@]2(O)[C@@]3(C)[C@@H](O)CCC(C)(C)[C@@H]3[C@H](O)[C@H](OC(=O)NCC(C)C)[C@@]2(C)O1
log10 IC50: 2.05

Smiles structure: C=C[C@@]1(C)CC(=O)[C@]2(O)[C@@]3(C)[C@@H](O)CCC(C)(C)[C@@H]3[C@H](O)[C@H](OC(=O)NCCO)[C@@]2(C)O1
log10 IC50: 1.63

Smiles structure: C=C[C@@]1(C)CC(=O)[C@]2(O)[C@@]3(C)[C@@H](O)CCC(C)(C)[C@@H]3[C@H](OC(=O)NCC3CCCCC3)[C@H](OC(C)=O)[C@@]2(C)O1
log10 IC50: 2.07

Smiles structure: C=C[C@@]1(C)CC(=O)[C@]2(O)[C@@]3(C)[C@@H](O)CCC(C)(C)[C@@H]3[C@H](OC(=O)NCCN(C)C)[C@H](O)[C@@]2(C)O1
log10 IC50: 2.39
